- System: U251 CNS
- Assay Summary: NCI tumour cell line growth inhibition, 48 h
Endpoint Label: TGI

## Task Please indicate TGI recorded for CC(=O)NCc1nc(C#N)c(N)o1
## Result > 100 µM

## Task Please indicate TGI recorded for CC1=C2C3=C(C)C(=O)C(C)(C)CC[C@@]3(C)[C@]2(C)CCC(C)(C)C1=O
## Result > 100 µM

## Task Please indicate TGI recorded for Nc1ccc(C(=O)Nn2c(-c3ccccc3)nc3ccccc3c2=O)cc1
## Result > 100 µM

## Task Please indicate TGI recorded for Cn1cc(C2=C(c3cn(CCCN=C(N)N)c4ccccc34)C(=O)NC2=O)c2ccccc21
## Result > 25 µM

## Task Please indicate TGI recorded for O=[N+]([O-])C(C(Cl)=C(Cl)Cl)=C(N1CCOCC1)N1CCOCC1
## Result > 100 µM

====

- System: EKVX NSCLC
- Assay Summary: NCI tumour cell line growth inhibition, 48 h
Endpoint Label: GI50

## Task Please indicate GI50 recorded for COc1ccc2cc(C(=O)/C=C/c3cccc(OC)c3OC)ccc2c1
## Result 17.9 µM

## Task Please indicate GI50 recorded for C[C@]12CC[C@@H]3c4ccc(O)cc4C[C@@H](CCCCCCCCCS(=O)CCCC(F)(F)C(F)(F)F)[C@H]3[C@@H]1CC[C@@H]2O (some centres not stated)
## Result > 100 µM

## Task Please indicate GI50 recorded for CC(C)CSc1nc(Nc2ccccc2)c(C#N)c(-c2ccc(F)cc2)n1
## Result 1.73 µM

## Task Please indicate GI50 recorded for O=C(C[C@@H](C(=O)NCc1cccc(C(F)(F)F)c1)N1C(=O)[C@@H](N2C(=O)OC[C@@H]2c2ccccc2)[C@H]1/C=C/c1ccccc1)NC1CCN(Cc2ccccc2)CC1
## Result 15.1 µM

## Task Please indicate GI50 recorded for C=C1C(=O)O[C@H]2[C@H]1CC/C(COC(=O)/C=C\C(=O)NCc1ccc(Cn3c(=O)sn(-c4ccc(C#N)cc4)c3=O)cc1)=C\CC[C@@]1(C)O[C@@H]21
## Result 0.797 µM

## Task Please indicate GI50 recorded for Cn1cc(-c2csc(-c3cccc(F)c3)n2)c2cccnc21
## Result 12.5 µM

## Task Please indicate GI50 recorded for NC(N)=NC(N)=Nc1cc2ccccc2c2ccccc12
## Result 12 µM

====

For each of the compounds below, state its TGI.
- Test system: SF-539 CNS
- Assay Summary: NCI tumour cell line growth inhibition, 48 h
Please give a number only; it is taken to be in µM.

## Task Please indicate TGI recorded for Cn1cc(-c2csc(-c3cccc(F)c3)n2)c2cccnc21
## Result 30.1

## Task Please indicate TGI recorded for CCOC(=O)c1c(C)n(Cc2ccc(OC)cc2)c2c1cc(O)c1[nH]c3c(c12)CCCC3
## Result 7.07

## Task Please indicate TGI recorded for CSc1ccc(/C=C2/C[N+](C)(C)C/C(=C/c3ccc(SC)cc3)C2=O)cc1
## Result 34

## Task Please indicate TGI recorded for COc1ccc(C2CC(=O)c3c(O)c(OC)c(OC)c(OC)c3O2)c(O)c1 (stereo not given)
## Result 9.39

====

- Tested on: RPMI-8226 leukemia
- Assay Summary: NCI tumour cell line growth inhibition, 48 h
Endpoint Label: TGI (µM)
Please give a number only; it is taken to be in µM.

## Task Please indicate TGI recorded for O=C(CNc1ccc(Cl)cc1)Nn1c(-c2ccccc2)nc2ccccc2c1=O
## Result 45.2

## Task Please indicate TGI recorded for CCC1c2[nH]c3ccccc3c2C[C@H]2C(=O)NC(CCC(=O)OC(C)(C)C)C(=O)N12 (some centres not stated)
## Result 97.9

## Task Please indicate TGI recorded for Nc1c(-c2ccc(Br)cc2)[n+]([O-])c2ccccc2[n+]1[O-]
## Result 78.3

## Task Please indicate TGI recorded for C=C1CC[C@@]2(OC1)OC1C[C@H]3[C@@H]4CC=C5C[C@@H](O)CC(OC6OCC(OC(=O)[C@@H](O)[C@@H](C)CC)C(OC(C)=O)C6OC6OC(C)C(O)C(O)C6O)[C@]5(C)[C@H]4CC[C@]3(C)C1[C@@H]2C (some centres not stated)
## Result 4.89

## Task Please indicate TGI recorded for O=C(C[C@@H](C(=O)NCc1cccc(C(F)(F)F)c1)N1C(=O)[C@@H](N2C(=O)OC[C@@H]2c2ccccc2)[C@H]1/C=C/c1ccccc1)NC1CCN(Cc2ccccc2)CC1
## Result 5.31

## Task Please indicate TGI recorded for C[C@]12CC[C@@H]3c4ccc(O)cc4CC[C@H]3[C@@H]1CC[C@@H]2NS(=O)(=O)c1ccc(C(F)(F)F)cc1
## Result 6.79

## Task Please indicate TGI recorded for COc1ccc(C2CC(=O)c3c(O)c(OC)c(OC)c(OC)c3O2)c(O)c1 (configuration not stated)
## Result 18.4
